- target.under.test: T1, CDK9/CyclinT1 (Homo sapiens, UniProt P50750)
- T1 construct: purchased ProQinase/Reaction Biology, USA #0371-0345-1
- protocol.summary: CDK9/T1 ADPGlo kinase assay
- Assay type: biochemical
- cond: CDK9/CyclinT1 6 nM, ATP 10 microM, PDKtide 40 microM, 120 min RT
pIC50: −log10 of the molar value.
readout.name: pIC50

| structure.smiles.string | pIC50 |
| --- | --- |
| Fc1cccc(F)c1-c1nc(Nc2cnn(C3CCN(C4CCOCC4)CC3)c2)n2nccc2n1 | > 6.70 |
| COc1ccc(Nc2nc(-c3c(F)cccc3F)nc3ccnn23)cc1OC | > 6.00 |
| CCOc1cc(Nc2nc(-c3c(Cl)cccc3Cl)nc3ccnn23)ccc1N1CCN(C)CC1 | > 6.00 |

Lookup: Give pIC50 for the following compound: Cn1cc(Nc2nc(-c3c(F)cccc3F)nc3c(Cl)cnn23)cn1
Found: > 7.70

Lookup: Look up and report measured pIC50 for this entry: COc1cc(Nc2nc(-c3c(F)cccc3F)nc3ccnn23)ccc1N1CCC(N2CCN(C)CC2)CC1
Found: > 6.00

Lookup: Dear colleague, please send me the reported pIC50 for CC(C)(C)NC(=O)c1ccc(Nc2nc(-c3c(F)cccc3Cl)nc3ccnn23)cc1 when you can.
Found: > 6.00

Lookup: Report pIC50, nothing else, for this compound: N[C@H]1CC[C@H](Nc2nc(-c3c(F)cccc3F)nc3c(C(F)(F)F)cnn23)CC1
Found: > 7.70

Lookup: Look up and state reported pIC50 for CC(=O)N1CCN(c2ccc(Nc3nc(-c4c(F)cccc4F)nc4ccnn34)cc2)CC1
Found: > 6.00
